testedSystem: HIV-1 Du156.12 Env (HIV-1 Du156.12)
procedureSummary: cell-based or functional assay
valueType: IC50, neutralization of Du156.12 pseudovirus
Output should be the measured figure followed by the unit it is expressed in.

Task: What value of IC50, neutralization of Du156.12 pseudovirus has been reported for the following binder? H4K3_SFS28EPE (antibody, V domains shown) VH: KVQLVQSGAELKKPWSSVRVSCKASGGEPESYAFNWVRQAPGQRLEWLGGIVPLVSSTNYAQRFRGRVTISADRSTSTVYLEMTGLTSADTAVYFCAREGEGWFGRPLRAFEFWGQGTLVTVST VL: EIVLTQSPGTFALSPGERATLSCRASQSVSGGALAWYQQKAGQAPRLLIYDTSGRATGVPGRFSGSGSETDFSLTISRLEPEDFAVYYCQQYGTSQSTFGQGTRLETR
Result: 2.89 µg/mL
